target.system: Luciferin 4-monooxygenase (Photinus pyralis) (UniProt P08659)
Sequence (P08659 whole entry, looked up): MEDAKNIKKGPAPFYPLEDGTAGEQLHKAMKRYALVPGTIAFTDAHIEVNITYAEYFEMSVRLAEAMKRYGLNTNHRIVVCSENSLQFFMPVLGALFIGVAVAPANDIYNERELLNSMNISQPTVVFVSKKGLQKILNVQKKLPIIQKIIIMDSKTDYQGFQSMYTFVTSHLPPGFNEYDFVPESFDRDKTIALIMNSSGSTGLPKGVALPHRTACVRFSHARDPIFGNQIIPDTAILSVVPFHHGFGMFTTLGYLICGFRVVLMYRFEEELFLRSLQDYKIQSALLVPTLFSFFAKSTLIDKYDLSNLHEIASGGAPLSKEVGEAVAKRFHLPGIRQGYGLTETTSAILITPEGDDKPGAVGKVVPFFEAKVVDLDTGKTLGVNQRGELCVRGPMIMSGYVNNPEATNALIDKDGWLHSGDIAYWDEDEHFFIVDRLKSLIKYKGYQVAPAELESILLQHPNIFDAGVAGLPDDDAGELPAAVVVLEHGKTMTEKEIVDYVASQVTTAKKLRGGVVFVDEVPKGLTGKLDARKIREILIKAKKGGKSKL
experimental.protocol: qHTS assay to identify small molecule inhibitors of firefly luciferase (AID 1224835); also: nearly all actives have a fitted effect of over 25% in size
reported.conditions: purified P. pyralis luciferase, luminescence inhibition; series mostly up to 115 µM
Inconclusive results are not listed. Activity calls are given as the source filed them. Calls follow the shape of the dose curve; as a rule, active = well fitted inhibition curve with a large enough effect in the repeat runs; inconclusive = weak or mixed curves; inactive = flat fitted curve, though single readings scatter.
Write down one outcome, taken from active, inactive

[[record]]
compound = "N#CNC#N"
label_value = "inactive"

[[record]]
compound = "CCCCCCCCCCBr"
label_value = "inactive"

[[record]]
compound = "CCCN(CC)CC1COC2(CCC(C(C)(C)C)CC2)O1 (stereo not given)"
label_value = "inactive"

[[record]]
compound = "CC(C)CC(C)Nc1ccc(Nc2ccccc2)cc1 (stereo not given)"
label_value = "active"

[[record]]
compound = "COP(=O)(CCC(=O)NCO)OC"
label_value = "inactive"


Lab log entry: `N#Cc1ccc(O)cc1` — outcome as called in the assay?
inactive

* * *

experimental.protocol: qHTS assay to identify small molecule antagonists of the progesterone receptor (PR) signaling pathway - cell viability counter screen (AID 1346798); also: nearly all actives have a fitted effect of over 50% in size
reported.conditions: PR-UAS-bla HEK293T viability, CellTiter-Glo luminescence, 16 h; series mostly up to 92.4 µM
Records with an inconclusive call do not appear. Active and inactive are the calls of the source. Calls follow the shape of the dose curve; as a rule, active = well fitted cell-killing curve with a large enough effect in the repeat runs; inconclusive = weak or mixed curves, or effect the other way; inactive = no such curve, though single readings can be large or run the other way.
Write down one outcome, taken from active, inactive

As a guide, the following entries are already answered.
[[record]]
molecule = "Cc1cc(C(C)(C)c2cc(C)c(O)c(C)c2)cc(C)c1O"
label_value = "active"

[[record]]
molecule = "CCOP(=S)(OCC)SCCS(=O)(=O)CC"
label_value = "inactive"

[[record]]
molecule = "CC(=O)O[C@H]1CC[C@@]2(C)C(=CC[C@@H]3[C@@H]2CC[C@]2(C)C(=O)CC[C@@H]32)C1"
label_value = "active"

[[record]]
molecule = "C[C@H]1CC[C@@H]2[C@@H](C)[C@H]3[C@H](C[C@H]4[C@@H]5CC=C6CC(O[C@@H]7O[C@H](CO)[C@H](O)[C@H](O[C@@H]8O[C@H](CO)[C@@H](O)[C@H](O)[C@H]8O)[C@H]7O[C@H]7O[C@@H](C)[C@H](O)[C@@H](O)[C@H]7O)CC[C@]6(C)[C@H]5CC[C@]34C)N2C1 (stereo partly specified)"
label_value = "active"

[[record]]
molecule = "O=C(Nc1ccc2[nH]ccc2c1)c1cc2cc(F)ccc2n1Cc1cccc(F)c1"
label_value = "active"

[[record]]
molecule = "N#CSCSC#N"
label_value = "inactive"

[[record]]
molecule = "CC1CCC(C(C)C)C(OC(=O)c2ccccc2N)C1 (stereo unspecified)"
label_value = "active"

[[record]]
molecule = "CC(C)(COCC1CO1)COCC1CO1 (stereo unspecified)"
label_value = "inactive"


Lab log entry: `CC(=O)[O-].CC(=O)[O-].O.O.[Cd+2]` — outcome as called in the assay?
active

Lab log entry: BrCC(Br)c1ccccc1 (stereo unspecified) — outcome as called in the assay?
inactive

Lab log entry: `CN(CCCC(=O)c1cccnc1)N=O` — outcome as called in the assay?
inactive

Lab log entry: `Cc1cc(C)c(C2=C(OC(=O)CC(C)(C)C)C3(CCCC3)OC2=O)c(C)c1` — outcome as called in the assay?
inactive

Lab log entry: `CCc1cc(C)cc(CC)c1-c1c(OC(=O)C(C)(C)C)n2n(c1=O)CCOCC2` — outcome as called in the assay?
inactive

Lab log entry: `CCOP(=S)(OCC)SCS(=O)(=O)CC` — outcome as called in the assay?
inactive

* * *

experimental.protocol: qHTS assay to identify small molecule HDAC inhibitors - cell viability counter screen (AID 1259365); also: nearly all actives have a fitted effect of over 50% in size
reported.conditions: HCT-116 viability, CellTiter-Glo ATP luminescence, 2 h; series mostly up to 92.4 µM
The source made the active and inactive calls. The call rests on the fitted dose curve; in most records, active means well fitted cell-killing curve with a large enough effect in the repeat runs; inconclusive means weak or mixed curves, or effect the other way; inactive means flat fitted curve, though single readings scatter.
Write down one outcome, taken from T for active, F for inactive

[[record]]
compound = "ClC1=C(Cl)C2(Cl)C3C(Cl)C=CC3C1(Cl)C2(Cl)Cl (centres undefined)"
label_value = "F"

[[record]]
compound = "CC1(C)[C@H](C(=O)O[C@H](C#N)c2cccc(Oc3ccccc3)c2)[C@@H]1/C=C(\\Cl)C(F)(F)F"
label_value = "F"

[[record]]
compound = "CC(c1ccc(O)cc1)c1ccc(O)cc1"
label_value = "F"

[[record]]
compound = "CC[C@H](C)[C@H]1O[C@]2(C=C[C@@H]1C)C[C@@H]1C[C@@H](C/C=C(\\C)[C@@H](O[C@H]3C[C@H](OC)[C@@H](O[C@H]4C[C@H](OC)[C@@H](O)[C@H](C)O4)[C@H](C)O3)[C@@H](C)/C=C/C=C3\\CO[C@@H]4[C@H](O)C(C)=C[C@@H](C(=O)O1)[C@]34O)O2"
label_value = "F"

[[record]]
compound = "CC(=O)C(Cl)(Cl)Cl"
label_value = "F"


Lab log entry: `CN(C)C(=S)S` — outcome as called in the assay?
F

* * *

experimental.protocol: A CellTox Green Cytotoxicity Assay to monitor cytotoxicity in HEK293 cells - 32 hour (AID 1224881); also: nearly all actives have a fitted effect of over 40% in size; also: potency is read from the fitted curve at half-maximal effect
reported.conditions: CellTox Green fluorescence; series mostly up to 76.8 µM
Records with an inconclusive call do not appear. Activity calls are given as the source filed them. The call rests on the fitted dose curve; in most records, active means well fitted activation curve with a large enough effect in the repeat runs; inconclusive means weak or mixed curves; inactive means flat fitted curve, though single readings scatter.
metric: Potency

As a guide, the following entries are already answered.
[[record]]
compound = "COP(=O)(CCC(=O)NCO)OC"
recorded_result = "inactive"

[[record]]
compound = "CC(C)CCCCCCCOP(=O)(Oc1ccccc1)Oc1ccccc1"
recorded_result = "inactive"

[[record]]
compound = "O=[N+]([O-])O.O=[N+]([O-])O.[Cd]"
recorded_result = "38.9 µM (active)"

[[record]]
compound = "CCc1nn(C)c(C(=O)NCc2ccc(C(C)(C)C)cc2)c1Cl"
recorded_result = "inactive"

[[record]]
compound = "COC[C@H](C)N(C(=O)CCl)c1c(C)csc1C"
recorded_result = "inactive"

[[record]]
compound = "C1CCC2CCCCC2C1 (centres undefined)"
recorded_result = "inactive"


Assign Potency to the following record: CCOc1cc(C(C)(C)C)ccc1C1COC(c2c(F)cccc2F)=N1 (centres undefined)
inactive

Assign Potency to the following record: `O=c1ssc(Cl)c1Cl`
24.5 µM (active)

Assign Potency to the following record: `CN(C)CCc1c[nH]c2cccc(O)c12`
inactive

Assign Potency to the following record: `N#Cc1c(-c2ccc(Cl)cc2)[nH]c(C(F)(F)F)c1Br`
49 µM (active)

Assign Potency to the following record: `Cl/C=C\CCl`
inactive

* * *

experimental.protocol: Caspase-3/7 induction in CHO-K1 cells by small molecules, qHTS cell viability counter screen (AID 1346979); also: nearly all actives have a fitted effect of over 35% in size; also: potency is read from the fitted curve at half-maximal effect
reported.conditions: CellTiter-Fluor fluorescence, 17 h; series mostly up to 92.4 µM
Results filed as inconclusive are left out. Active and inactive are the calls of the source. Calls come from the whole dose curve; as a rule, active = well fitted cell-killing curve with a large enough effect in the repeat runs; inconclusive = weak or mixed curves, or effect the other way; inactive = no such curve, though single readings can be large or run the other way.
metric: Potency

[[record]]
compound = "CC(C)OS(C)(=O)=O"
metric = "Potency"
recorded_result = "inactive"

[[record]]
compound = "FC(Cl)(Cl)Cl"
metric = "Potency"
recorded_result = "inactive"

[[record]]
compound = "Clc1ccc(C(Cl)(Cl)Cl)c(Cl)c1"
metric = "Potency"
recorded_result = "inactive"

[[record]]
compound = "CC(C)(c1ccc(O)c(-c2ccccc2)c1)c1ccc(O)c(-c2ccccc2)c1"
metric = "Potency"
recorded_result = "43.3 µM (active)"

[[record]]
compound = "C1CCC2CCCCC2C1 (stereo unspecified)"
metric = "Potency"
recorded_result = "inactive"


Assign Potency to the following record: COc1cccc2c1C(=O)c1c(O)c3c(c(O)c1C2=O)C[C@@](O)(C(=O)CO)CC3OC1CC(N2CCOC(OC)C2)C(O)C(C)O1 (stereo partly specified)
9.44 µM (active)

Assign Potency to the following record: `COc1ccc([N+](=O)[O-])cc1O`
inactive

Assign Potency to the following record: COc1cc(N)c(Cl)cc1C(=O)NC1CN2CCC1CC2 (stereo unspecified)
inactive

Assign Potency to the following record: `CCCOCC(=Nc1ccc(Cl)cc1C(F)(F)F)n1ccnc1`
48.5 µM (active)

Assign Potency to the following record: `CCc1cc(C)cc(CC)c1-c1c(OC(=O)C(C)(C)C)n2n(c1=O)CCOCC2`
27.3 µM (active)

Assign Potency to the following record: `O=C(CCl)C(Cl)Cl`
6.17 µM (active)

Assign Potency to the following record: `O=C(CCl)Nc1ccccc1`
54.5 µM (active)

Assign Potency to the following record: `N#CC(Cl)Cl`
inactive

Assign Potency to the following record: `CCCN(CCC)c1c([N+](=O)[O-])cc(S(N)(=O)=O)cc1[N+](=O)[O-]`
50.1 µM (active)

Assign Potency to the following record: `CN(C)C1CSSSC1`
inactive

Assign Potency to the following record: CCC(C)c1cc([N+](=O)[O-])cc([N+](=O)[O-])c1OC(=O)C=C(C)C (stereo unspecified)
43.3 µM (active)
